- assay_target: P. falciparum apicoplast DNA polymerase (Pf-apPOL) (Plasmodium falciparum)
- Sequence (Q8ILY1 entry or part of it): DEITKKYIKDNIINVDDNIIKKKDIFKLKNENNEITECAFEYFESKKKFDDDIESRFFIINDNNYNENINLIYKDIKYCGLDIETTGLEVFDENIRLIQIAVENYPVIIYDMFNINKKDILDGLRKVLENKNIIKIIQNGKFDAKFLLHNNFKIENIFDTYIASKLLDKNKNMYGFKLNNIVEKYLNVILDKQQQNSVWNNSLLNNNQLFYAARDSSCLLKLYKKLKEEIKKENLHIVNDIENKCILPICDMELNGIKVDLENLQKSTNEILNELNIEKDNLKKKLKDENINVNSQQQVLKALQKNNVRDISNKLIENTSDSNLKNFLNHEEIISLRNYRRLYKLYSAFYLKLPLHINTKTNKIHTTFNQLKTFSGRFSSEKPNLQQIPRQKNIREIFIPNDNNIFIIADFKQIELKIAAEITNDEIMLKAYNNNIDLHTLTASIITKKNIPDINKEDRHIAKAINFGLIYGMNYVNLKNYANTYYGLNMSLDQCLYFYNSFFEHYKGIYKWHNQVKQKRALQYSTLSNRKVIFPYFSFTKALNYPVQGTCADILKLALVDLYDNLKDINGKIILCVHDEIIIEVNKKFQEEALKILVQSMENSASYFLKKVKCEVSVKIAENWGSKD
- experiment_notes: Fluorescence-based high-throughput DNA polymerase assay (molecular beacon), primary screen and dose-response;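 also: compound concentration given in µM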
- Assay type: biochemical
- conditions_used: conc 2.5 (unit not given); 40'; DRC-2
Each item that follows carries a reported % inhibition Apol 40'.
# answer = value followed by unit

Worked cases, answers included:
CN1CC(=Cc2ccco2)C(=O)C(=Cc2ccco2)C1 | 21%
O=C(Nc1ncc([N+](=O)[O-])s1)c1ccc2c(c1)C(=O)N(N1C(=O)c3ccccc3C1=O)C2=O | 9%
O=C(O)CC1SC(c2ccc3c(c2)OCO3)=NC1=O (centres unmarked) | 9%
CSC(C)C(=O)C=CN(C)C (centres unmarked) | 11%

Next, consider the following molecule.
Given O=C(NNC(=O)C(F)(F)Sc1ccccc1)c1ccsc1 [Molecule 68, O=C(C(Sc1ccccc1)(F)F)NNC(=O)c1cscc1] , report its % inhibition Apol 40' on P. falciparum apicoplast DNA polymerase (Pf-apPOL) (Plasmodium falciparum).
5%
